Sourced from paper PMC12844124

test.summary: Changes over time of Z to E transition by 19F NMR
Format: physicochemical
condition.summary: 2 h, light 505 nm, 100 mM in DMSO
parameter: Z isomer, changes over time (%)

compound="COc1ccc(/C=C/C(=O)c2cccc(/N=N/c3ccc(F)cc3)c2)cc1OC [Compound 17a]" parameter="Z isomer, changes over time" quantitative_result=30.37
compound="COc1cc(/C=C/C(=O)c2cccc(/N=N/c3ccc(F)cc3F)c2)cc(OC)c1 [Compound 17f]" parameter="Z isomer, changes over time" quantitative_result=45.77
compound="COc1cc(/C=C/C(=O)c2cccc(/N=N/c3ccc(F)cc3)c2)cc(OC)c1 [Compound 17b]" parameter="Z isomer, changes over time" quantitative_result=30.2
compound="COc1ccc(/C=C/C(=O)c2cccc(/N=N/c3ccc(F)cc3F)c2)cc1OC [Compound 17e]" parameter="Z isomer, changes over time" quantitative_result=45.18

A: COc1cc(/C=C/C(=O)c2cccc(/N=N/c3ccc(F)cc3F)c2)cc(OC)c1OC [Compound 17g]
B: COc1cc(/C=C/C(=O)c2cccc(/N=N/c3ccc(F)cc3)c2)cc(OC)c1OC [Compound 17c]
Query: Which value of Z isomer, changes over time is greater, the one for A or the one for B ? Answer by stating the label of the chosen item.
Result: A
